# experimental_protocol: Toxicity liver stage against HepG2, at 10uM
# Assay type: cell-based
# Parameters: test concentration 10 uM, cell line HepG2-A16-CD81EGFP
# condition_notes: human, HepG2-A16-CD81EGFP cells; read-out: INHIBITION
recorded_metric: cytotoxicity at 10 µM (%)
Entry rule: numbers only, all in %.

// field: cytotoxicity at 10 µM; key: COc1cc(N2C[C@H]3CN(CCN4CCCC4)C(=O)[C@H]3C2)ncn1 ; value = 12.7

// field: cytotoxicity at 10 µM; key: CN(C)CCN1CCOC2(CCN(c3nccs3)CC2)c2ccccc21 ; value = -1.99

// field: cytotoxicity at 10 µM; key: O=C(CSC1=NS(=O)(=O)c2cc(F)ccc2N1)Nc1ccc(Cl)c(Cl)c1 ; value = 11.5

// field: cytotoxicity at 10 µM; key: F[C@@H]1CN(Cc2ccccc2)C[C@@H]1OCc1nc2ccccc2[nH]1 ; value = 4.61

// field: cytotoxicity at 10 µM; key: Cc1ccc2[nH]c(C(=O)N3CCCC3Cn3cccn3)cc2c1 (stereo unspecified) ; value = -12

// field: cytotoxicity at 10 µM; key: c1ccc(-n2ncc(CN3CCCC3Cn3cccn3)n2)cc1 (stereo unspecified) ; value = -2.73

// field: cytotoxicity at 10 µM; key: CCC(NC(=O)CNCC(F)(F)F)c1cc(F)ccc1F (stereo unspecified) ; value = -4.56

// field: cytotoxicity at 10 µM; key: CC(Oc1ccc(F)c(F)c1)C(=O)N(CC(N)=O)C1CCCC1 (stereo unspecified) ; value = -0.146

// field: cytotoxicity at 10 µM; key: OCC1CCCN1c1cc(N2CCN(c3ccccn3)CC2)ncn1 (stereo unspecified) ; value = 3.97

// field: cytotoxicity at 10 µM; key: Cn1ccnc1CN(Cc1ccccn1)Cc1ccccc1Cl ; value = 11.5

// field: cytotoxicity at 10 µM; key: Cn1c(CN2CCOCC2)cc(=O)c(O)c1CN1CCOCC1 ; value = -5.61

====

# experimental_protocol: Toxicity liver stage against HepG2, at 10uM
# Format: cell-based
# Parameters: test concentration 10 uM, cell line HepG2-A16-CD81EGFP
# condition_notes: human, HepG2-A16-CD81EGFP cells; read-out: INHIBITION
recorded_metric: cytotoxicity at 10 µM (%)
Entry rule: numbers only, all in %.

// field: cytotoxicity at 10 µM; key: Cc1nc(C)n(CC2CCCN(CCC(=O)N3CCOCC3)C2)n1 (centres undefined) ; value = -6.7

// field: cytotoxicity at 10 µM; key: Cc1nc(CN(C)c2nccc(C(F)(F)F)n2)cs1 ; value = 1.15

// field: cytotoxicity at 10 µM; key: O=C(Nc1cc(Cl)ccc1N1CCCCC1)c1ccccn1 ; value = -55

// field: cytotoxicity at 10 µM; key: NC(=O)C1CCN(C(=O)NCc2cccnc2OC2CCCC2)C1 (centres undefined) ; value = -7.12

// field: cytotoxicity at 10 µM; key: CC(=O)c1cc2ncc(C(=O)NC3CCCC3)cc2[nH]1 ; value = -1.98

// field: cytotoxicity at 10 µM; key: COc1ccc(C2CCCCCN2Cc2nnc(C)o2)cc1 (centres undefined) ; value = -7.12

// field: cytotoxicity at 10 µM; key: Cc1ccc(C(=O)N2CCCC(c3nncn3C)C2)c(C)c1 (centres undefined) ; value = -14.1

// field: cytotoxicity at 10 µM; key: c1csc(-c2nc(CN3CCOC(Cn4cncn4)C3)co2)c1 (centres undefined) ; value = -11.8

// field: cytotoxicity at 10 µM; key: CCN(CC)C(=O)[C@@H]1C[C@H](NC(=O)c2cccn2C(C)C)CN1C ; value = 7.57

// field: cytotoxicity at 10 µM; key: COc1ccc(NC(=O)CCC(C)C)c(N2CCN(C(C)=O)CC2)n1 ; value = 8.43

// field: cytotoxicity at 10 µM; key: Cn1c(C2CC2)nc2cc(NC(=O)C3(O)CCCC3)ccc21 ; value = 2.84

// field: cytotoxicity at 10 µM; key: N#Cc1c(Cl)nsc1NCc1ccc(N2CCCC(C(N)=O)C2)cc1 (centres undefined) ; value = -9.65

// field: cytotoxicity at 10 µM; key: Cn1ncc2c(N3CC(N4CCCCC4)C3)nc(-c3ccncc3)nc21 ; value = 5.18

// field: cytotoxicity at 10 µM; key: CCc1noc(C(C)N2CCN(c3ccc(C#N)cn3)CC2)n1 (centres undefined) ; value = 4.78

// field: cytotoxicity at 10 µM; key: CCOC(=O)COC1CCN(C(C)=O)CC(=O)N(C)c2ccccc21 (centres undefined) ; value = 7.45

// field: cytotoxicity at 10 µM; key: CC(NCC(=O)Nc1ccc(N2CCCCCC2)cc1)c1cccs1 (centres undefined) ; value = 1.8

// field: cytotoxicity at 10 µM; key: CN(Cc1noc(C2CC2)n1)C1CCN(CCc2cnn(C)c2)C1 (centres undefined) ; value = -0.222

// field: cytotoxicity at 10 µM; key: CS(=O)(=O)N1CCCC1Cn1cccn1 (centres undefined) ; value = -10.2

// field: cytotoxicity at 10 µM; key: COCC1CC2(CCN(c3cccc(C)n3)CC2)CN1c1ncccn1 (centres undefined) ; value = -108

// field: cytotoxicity at 10 µM; key: CN(C)S(=O)(=O)N1CC[C@]2(C[C@@H](Oc3cccnc3)CO2)C1 ; value = -76.3

// field: cytotoxicity at 10 µM; key: Cn1ccnc1C(=O)N1CCOC(Cc2ccccc2Cl)C1 (centres undefined) ; value = -12.2

// field: cytotoxicity at 10 µM; key: O=C(O)c1cccc(CN2CCC(c3ccnc4ccnn34)CC2)c1 ; value = -16.2

// field: cytotoxicity at 10 µM; key: CCOc1ccc(NC2CCN(C(C)C)C2=O)cn1 (centres undefined) ; value = -17

// field: cytotoxicity at 10 µM; key: CC(=O)N1CCN(C(=O)NCc2cccnc2OC(C)C)CC1 ; value = -17.5

====

# experimental_protocol: Toxicity liver stage against HepG2, at 10uM
# Type: cell-based
# Design: test concentration 10 uM, cell line HepG2-A16-CD81EGFP
# condition_notes: human, HepG2-A16-CD81EGFP cells; read-out: INHIBITION
Task for the reader: assign each of the following compounds its reported cytotoxicity at 10 µM.
Put your answer as a value accompanied by its unit after it.

// field: cytotoxicity at 10 µM; key: Cn1ccnc1CN1CCC2(CC1)CN(Cc1ccccc1)C(=O)CO2 ; value = -3.99%

// field: cytotoxicity at 10 µM; key: Cc1ncsc1C(=O)NCCc1cccs1 ; value = -15.3%

// field: cytotoxicity at 10 µM; key: CCC(C)(NCC(=O)OC)c1nc(C)cs1 (configuration not stated) ; value = -3.94%

// field: cytotoxicity at 10 µM; key: CC(NC(=O)Cc1cc2c(cc1Cl)OCCO2)c1ccncn1 (configuration not stated) ; value = -6.29%

// field: cytotoxicity at 10 µM; key: Fc1ccc(CC2CCN(Cc3nccs3)CC2)cc1 ; value = -2.87%

// field: cytotoxicity at 10 µM; key: CC(C)(NC(=O)NCc1cccc(Br)c1)C(=O)O ; value = 9.13%

// field: cytotoxicity at 10 µM; key: CC(C)N(C(=O)Cn1nnnc1CCc1ccccc1)C(C)C ; value = 7.1%

// field: cytotoxicity at 10 µM; key: O=C(NC1CCCC1)[C@H]1C[C@H]2OCC[C@H]2N(Cc2ccoc2)C1 ; value = -77.3%

// field: cytotoxicity at 10 µM; key: Cn1cnc2cc(C(=O)NS(=O)(=O)c3ccc(F)cc3)ccc21 ; value = -8.95%

// field: cytotoxicity at 10 µM; key: COC(=O)CC(c1ccc(OC)c(OC)c1OC)c1c(O)n[nH]c1C (configuration not stated) ; value = 4.02%

// field: cytotoxicity at 10 µM; key: Cc1ccc(-c2noc(CNCC3CN(C)CCO3)n2)cc1F (configuration not stated) ; value = -1.51%

// field: cytotoxicity at 10 µM; key: COCCC1(CO)CCCN(Cc2ccc(C(F)(F)F)nc2)C1 (configuration not stated) ; value = -146%

// field: cytotoxicity at 10 µM; key: CN(C)C(=O)N1CCC2(CC(=O)N(c3cccc(C#N)c3)C2)C1 (configuration not stated) ; value = 3.33%

// field: cytotoxicity at 10 µM; key: CCc1cc(C(=O)N2CCC(c3cc4ncccc4cn3)CC2)no1 ; value = -14.4%

// field: cytotoxicity at 10 µM; key: O=C1c2c(O)cc(O)cc2O[C@@H](c2ccc(O)cc2)[C@@H]1O ; value = -0.639%

// field: cytotoxicity at 10 µM; key: Cc1cc(N2CCN(Cc3ccnn3C)CC2)cc(C2CCCN2)n1 (configuration not stated) ; value = 6.97%

// field: cytotoxicity at 10 µM; key: COc1ccc(C(=O)N(C)Cc2nnc3ccccn23)cc1 ; value = 3.45%

// field: cytotoxicity at 10 µM; key: c1cncc(COc2ccccc2CNC2CCc3ncnn3C2)c1 (configuration not stated) ; value = -3.69%

// field: cytotoxicity at 10 µM; key: CC(C)(O)CN1CCN(C(=O)c2cccn2Cc2ccccc2)CC1 ; value = -3.88%

// field: cytotoxicity at 10 µM; key: Cc1cc(C(=O)N2CCCC3(CNC(=O)O3)C2)c2c(C)nn(C)c2n1 (configuration not stated) ; value = 10.8%

// field: cytotoxicity at 10 µM; key: Cn1ncc2c(N3CCS(=O)(=O)CC3)nc(-c3cccnc3)nc21 ; value = 4.38%

// field: cytotoxicity at 10 µM; key: N#Cc1ccc(CN2CC3(CCCCN3c3cccnc3)CC2=O)cc1 (configuration not stated) ; value = 0.995%

// field: cytotoxicity at 10 µM; key: CCC1COCCN1C(=O)NCc1nccn1CCc1ccccc1 (configuration not stated) ; value = 4.42%

// field: cytotoxicity at 10 µM; key: Cc1cc(NC(=O)C(C)Oc2ccc3c(c2)OCO3)no1 (configuration not stated) ; value = -5.08%

// field: cytotoxicity at 10 µM; key: COc1ccccc1C(=O)Nc1ccc([C@@H](O)[C@H]2COCC(=O)N2)cc1 ; value = 1.17%

// field: cytotoxicity at 10 µM; key: Cc1cnn(CC(C)NCc2nc(-c3ccccn3)no2)c1 (configuration not stated) ; value = 0.234%

// field: cytotoxicity at 10 µM; key: CCN1CCN(CCCNC(=O)NC(C)c2nncn2C)CC1 (configuration not stated) ; value = -12.8%

// field: cytotoxicity at 10 µM; key: CCN1CCN(c2nsc(-c3cccnc3)c2C#N)CC1 ; value = -4.2%

// field: cytotoxicity at 10 µM; key: Cn1nc(C2CCN(C(=O)Cc3ccsc3)CC2)c2cccnc21 ; value = -4.9%

// field: cytotoxicity at 10 µM; key: CN(C)c1nc2sc(C(=O)N3CCN(C(=O)OC(C)(C)C)CC3)cc2s1 ; value = 1.71%

// field: cytotoxicity at 10 µM; key: Cc1nc(-c2ccsc2)ccc1C(=O)N(C)CC(F)(F)F ; value = -1.54%

// field: cytotoxicity at 10 µM; key: O=C(c1cnc2ccccn12)N1CCCC(c2ccn[nH]2)C1 (configuration not stated) ; value = -5.28%

// field: cytotoxicity at 10 µM; key: CCOC(=O)N1CCN(c2nc(NCCO)c3ccccc3n2)CC1 ; value = -1.32%

// field: cytotoxicity at 10 µM; key: COCCC(=O)N1CCCC(CCC(=O)Nc2ccc(Cl)cc2)C1 (configuration not stated) ; value = 6.48%

// field: cytotoxicity at 10 µM; key: Cc1csc(N2CCN(Cc3ccn(C)c(=O)c3)CC2)n1 ; value = 8.08%

// field: cytotoxicity at 10 µM; key: O=S(=O)(C1CC1)N1C[C@H]2CCC[C@@]2(COCc2ccccn2)C1 ; value = 10.6%

// field: cytotoxicity at 10 µM; key: COC(=O)CCc1c(C)nn(-c2nc(C)cc(=O)[nH]2)c1C ; value = 9.22%

// field: cytotoxicity at 10 µM; key: N#Cc1cccc(CN2CCn3cc(Cn4cccn4)nc3C2)c1 ; value = -0.501%

// field: cytotoxicity at 10 µM; key: O=C(CC(F)(F)F)NC(c1ccc(Cl)cc1)c1ncon1 (configuration not stated) ; value = 2.14%

// field: cytotoxicity at 10 µM; key: Cc1ccsc1C(=O)N1CC[C@H]2CO[C@H](CN(C)C)[C@H]2C1 ; value = 2.93%

// field: cytotoxicity at 10 µM; key: CC(C)C1C(=O)NCCN1C(=O)CCCc1nc(C(C)(C)C)no1 (configuration not stated) ; value = -3.53%

// field: cytotoxicity at 10 µM; key: COc1cc(CNC(=O)c2c(C)noc2C(C)C)ccn1 ; value = -7.9%

// field: cytotoxicity at 10 µM; key: Cc1ccc(CN[C@@H]2COC[C@H]2Cc2cc(C)no2)cc1 ; value = -23.2%

// field: cytotoxicity at 10 µM; key: Cc1cc2c(C)cc(O)cc2c(=O)o1 ; value = 5.73%

// field: cytotoxicity at 10 µM; key: Cc1ccc(N2CCN(C(=O)CCc3n[nH]c(C)c3C)CC2=O)cc1 ; value = 4.78%

// field: cytotoxicity at 10 µM; key: COC(=O)c1ccc(N(C(=O)c2cscn2)C(C)C)c(C)c1 ; value = 1.7%

// field: cytotoxicity at 10 µM; key: O=C([C@H]1C[C@H]2OCC[C@H]2N(CC2CCOCC2)C1)N1CCCCO1 ; value = -73.9%
